# assay explanation: chemical genetic growth profiling, strain panel (AID 1159580);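 note: tested at 20 µM; growth read once vehicle control cultures reached saturation at 30 °C; 1 = growth at the plate median or of vehicle wells; lower values mean less growth of the strain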
# condition: S. cerevisiae deletion strains, growth OD, locus YKR026C, strain gcn3, active compounds read low
The campaign covered roughly 5,500 compounds. About 2,000 (36%) were called active. Roughly 18% stayed inconclusive and do not appear here. This is one part of the list.
quantity kind: normalized growth
Give a plain numeric answer without units written out.

Worked examples follow.
State its normalized growth for this compound: C[C@]12C=CC(=O)C=C1CCC1C3C[C@@H](O)[C@](O)(C(=O)CO)[C@@]3(C)C[C@H](O)[C@@]12F (stereo partly drawn) 0.985

State its normalized growth for this compound: CC(C)CCCC(C)C1CCC2C3CC[C@H]4CCCC[C@]4(C)C3CC[C@]12C (stereo partly drawn) 0.998

State its normalized growth for this compound: CC(CCC(=O)O)[C@H]1CCC2C3CC[C@@H]4C[C@H](O)CC[C@]4(C)C3C[C@H](O)[C@@]21C (stereo partly drawn) 1

State its normalized growth for this compound: CC(CCC(=O)O)[C@H]1CCC2C3C(C[C@H](O)[C@@]21C)[C@@]1(C)CC[C@@H](O)C[C@H]1C[C@H]3O (stereo partly drawn) 1.02

State its normalized growth for this compound: COC(=O)CCC(C)[C@H]1CCC2C3C(C[C@H](O)[C@@]21C)[C@@]1(C)CC[C@@H](O)C[C@H]1C[C@H]3O (stereo partly drawn) 1.03

***
State its normalized growth for this compound: COC(=O)CCC(C)C1CCC2C3CC[C@@H]4C[C@H](O)CC[C@]4(C)C3C[C@H](O)[C@]12C (stereo partly drawn) 1

State its normalized growth for this compound: CC(CCC(=O)O)[C@H]1CCC2C3CC[C@@H]4CCCC[C@]4(C)C3CC[C@@]21C (stereo partly drawn) 1.01

State its normalized growth for this compound: `COc1cc(OC)c(OC)cc1C=O` 0.994
